Listed compounds paired with reported AC50
# SYSTEM NAME: Voltage-gated inwardly rectifying potassium channel KCNH2 (Homo sapiens, UniProt Q12809); also: assay procedure not described here
# Sequence (Q12809 whole entry): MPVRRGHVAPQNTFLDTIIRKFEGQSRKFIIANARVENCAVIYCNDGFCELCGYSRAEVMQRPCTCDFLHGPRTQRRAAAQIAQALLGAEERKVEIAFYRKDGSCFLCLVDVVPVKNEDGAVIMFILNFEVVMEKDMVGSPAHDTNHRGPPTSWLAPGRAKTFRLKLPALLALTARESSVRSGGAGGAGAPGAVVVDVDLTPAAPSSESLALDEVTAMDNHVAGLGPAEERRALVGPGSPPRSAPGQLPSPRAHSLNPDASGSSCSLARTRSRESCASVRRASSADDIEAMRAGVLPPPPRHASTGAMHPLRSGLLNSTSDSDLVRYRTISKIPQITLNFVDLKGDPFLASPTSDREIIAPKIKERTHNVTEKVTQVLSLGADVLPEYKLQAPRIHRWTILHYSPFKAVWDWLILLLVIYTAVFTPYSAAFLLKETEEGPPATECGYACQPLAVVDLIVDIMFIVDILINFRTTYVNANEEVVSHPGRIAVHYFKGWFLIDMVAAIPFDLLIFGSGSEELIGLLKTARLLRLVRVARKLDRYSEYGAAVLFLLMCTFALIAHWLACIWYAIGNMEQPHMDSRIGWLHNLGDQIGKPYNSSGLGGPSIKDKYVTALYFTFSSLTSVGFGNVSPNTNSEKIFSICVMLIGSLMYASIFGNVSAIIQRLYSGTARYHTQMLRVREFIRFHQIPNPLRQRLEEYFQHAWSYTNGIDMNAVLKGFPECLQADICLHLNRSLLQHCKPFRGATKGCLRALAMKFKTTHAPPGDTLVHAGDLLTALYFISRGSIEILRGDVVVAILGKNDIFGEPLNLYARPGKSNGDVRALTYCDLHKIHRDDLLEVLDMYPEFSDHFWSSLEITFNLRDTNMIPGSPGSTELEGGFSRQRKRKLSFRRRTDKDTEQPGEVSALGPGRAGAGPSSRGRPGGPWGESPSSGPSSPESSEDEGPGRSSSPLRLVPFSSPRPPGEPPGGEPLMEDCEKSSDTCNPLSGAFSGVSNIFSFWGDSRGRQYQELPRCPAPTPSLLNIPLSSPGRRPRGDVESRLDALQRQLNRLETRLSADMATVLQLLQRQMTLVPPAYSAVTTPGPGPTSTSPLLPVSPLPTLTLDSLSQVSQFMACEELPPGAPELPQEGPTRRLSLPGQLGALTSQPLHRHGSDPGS
# Assay type: functional
MEASUREMENT TYPE: AC50

compound="C[C@H]1O[C@@H](O[C@H]2CC[C@@]3(C)[C@H](CC[C@@H]4[C@@H]3C[C@@H](O)[C@]3(C)[C@@H](C5=CC(=O)OC5)CC[C@]43O)C2)C[C@H](O)[C@@H]1O[C@H]1C[C@H](O)[C@H](O[C@H]2C[C@H](O)[C@H](O[C@@H]3O[C@H](CO)[C@@H](O)[C@H](O)[C@H]3O)[C@@H](C)O2)[C@@H](C)O1 [DESLANOSIDE]" recorded_measurement="> 30 µM"
compound="CC(C)NC(=N)NC(=N)Nc1ccc(Cl)c(Cl)c1 [CHLORPROGUANIL]" recorded_measurement="2.6 µM"
compound="C[C@]12CCC(=O)C[C@@H]1CC[C@@H]1[C@@H]2CC[C@]2(C)[C@@H](O)CC[C@@H]12 [STANOLONE]" recorded_measurement="> 30 µM"
compound=Oc1cc(O)c(Cl)cn1 recorded_measurement="> 30 µM"
compound="CC(OCCN1CCCCCC1)(c1ccccc1)c1ccc(Cl)cc1 (stereo unspecified) [SETASTINE]" recorded_measurement="0.14 µM"
compound="COc1cc(C(=O)NC2CCCNC2)cc(OC)c1OC (stereo unspecified) [TROXIPIDE]" recorded_measurement="> 30 µM"
compound="NNCCc1ccccc1 [PHENELZINE]" recorded_measurement="> 30 µM"
compound="CCCC(C)(COC(N)=O)COC(N)=O [MEPROBAMATE]" recorded_measurement="> 30 µM"
compound="Cc1ccc(C(=O)c2ccc(CC(=O)O)n2C)cc1 [TOLMETIN]" recorded_measurement="> 30 µM"
compound="N[C@@H](Cc1ccccc1)C(=O)O [PHENYLALANINE]" recorded_measurement="> 30 µM"
compound="c1ccc(C2(N3CCCCC3)CCCCC2)cc1 [PHENCYCLIDINE]" recorded_measurement="12 µM"
compound="CC/C=C\\C/C=C\\C/C=C\\C/C=C\\C/C=C\\CCCC(=O)OCC [ICOSAPENT ETHYL]" recorded_measurement="> 30 µM"
compound="Nc1cccc2c1C(=O)N(C1CCC(=O)NC1=O)C2=O (stereo unspecified) [POMALIDOMIDE]" recorded_measurement="> 30 µM"
compound="Cc1ccccc1N1C(=O)c2cc(S(N)(=O)=O)c(Cl)cc2NC1C (stereo unspecified) [METOLAZONE]" recorded_measurement="> 30 µM"
compound="C=CC[N+]1([C@H]2C[C@H]3[C@@H]4CC[C@H]5C[C@H](O)[C@@H](N6CCOCC6)C[C@]5(C)[C@H]4CC[C@]3(C)[C@H]2OC(C)=O)CCCC1 [ROCURONIUM]" recorded_measurement="1.06 µM"
compound="CCCCC(CC)CN1CN(CC(CC)CCCC)CC(C)(N)C1 (stereo unspecified) [HEXETIDINE]" recorded_measurement="0.75 µM"
compound="COc1cc(C(=O)NS(=O)(=O)c2ccccc2C)ccc1Cc1cn(C)c2ccc(NC(=O)OC3CCCC3)cc12 [ZAFIRLUKAST]" recorded_measurement="> 30 µM"
compound="CC(=O)c1ccc(S(=O)(=O)NC(=O)NC2CCCCC2)cc1 [ACETOHEXAMIDE]" recorded_measurement="> 30 µM"
compound="CCC(NC(C)C)C(O)c1ccc(O)c2[nH]c(=O)ccc12 (stereo unspecified) [PROCATEROL]" recorded_measurement="> 30 µM"
compound="Cc1ccc(C(=O)C(C)CN2CCCCC2)cc1 (stereo unspecified) [TOLPERISONE]" recorded_measurement="> 30 µM"
compound="C=C1CC[C@H](O)C/C1=C/C=C1\\CCC[C@]2(C)[C@@H]([C@H](C)CCCC(C)C)CC[C@@H]12 [CHOLECALCIFEROL]" recorded_measurement="> 30 µM"

###

# SYSTEM NAME: Gamma-aminobutyric acid receptor subunit alpha-1 (Rattus norvegicus, UniProt P62813); also: assay procedure not described here
# Sequence (P62813 whole entry): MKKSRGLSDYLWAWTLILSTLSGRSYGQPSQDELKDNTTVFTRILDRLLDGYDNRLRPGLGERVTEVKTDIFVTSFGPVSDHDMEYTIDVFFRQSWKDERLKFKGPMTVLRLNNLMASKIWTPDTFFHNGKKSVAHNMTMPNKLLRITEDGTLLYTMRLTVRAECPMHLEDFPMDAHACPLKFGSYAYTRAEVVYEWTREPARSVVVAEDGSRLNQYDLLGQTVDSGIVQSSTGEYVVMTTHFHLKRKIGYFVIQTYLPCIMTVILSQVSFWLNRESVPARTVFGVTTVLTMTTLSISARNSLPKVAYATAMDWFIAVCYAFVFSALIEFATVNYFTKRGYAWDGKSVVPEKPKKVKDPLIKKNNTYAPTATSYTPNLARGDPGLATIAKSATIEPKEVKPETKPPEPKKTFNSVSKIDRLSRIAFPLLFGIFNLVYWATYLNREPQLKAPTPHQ
# Assay type: functional
Listed compounds paired with reported AC50
MEASUREMENT TYPE: AC50

compound=CN1CCN=C(c2ccccc2)c2cc(Cl)ccc21 measurement_type=AC50 recorded_measurement="2.1 µM"
compound="CC(CN(C)C)C(C)(O)Cc1ccc(Cl)cc1 (stereo not drawn)" measurement_type=AC50 recorded_measurement="> 10 µM"
compound=Clc1ccc(Cn2c(CN3CCCC3)nc3ccccc32)cc1 measurement_type=AC50 recorded_measurement="> 30 µM"
compound="O=C(O)CCNC(=O)c1ccc(/N=N/c2ccc(O)c(C(=O)O)c2)cc1 [BALSALAZIDE]" measurement_type=AC50 recorded_measurement="> 30 µM"
compound="C=CCN1CCc2nc(N)sc2CC1 [TALIPEXOLE]" measurement_type=AC50 recorded_measurement="> 30 µM"
compound=COc1cc2[nH]c(C)c(CCN3CCN(c4ccccc4)CC3)c2cc1OC measurement_type=AC50 recorded_measurement="> 30 µM"
compound="O=c1[nH]c2ccccc2n1CCCN1CCN(C(c2ccccc2)c2ccccc2)CC1 [OXATOMIDE]" measurement_type=AC50 recorded_measurement="> 30 µM"
compound="CC[C@@H](CO)NC(=O)[C@@H]1C=C2c3cccc4c3c(cn4C)C[C@H]2N(C)C1 [METHYSERGIDE]" measurement_type=AC50 recorded_measurement="> 10 µM"
compound="CCOC(=O)C(C)(C)Oc1ccc(Cl)cc1 [CLOFIBRATE]" measurement_type=AC50 recorded_measurement="> 10 µM"
compound=O=C(O)c1cccnc1Nc1cccc(C(F)(F)F)c1 measurement_type=AC50 recorded_measurement="> 10 µM"
compound="CCCNC(=O)NS(=O)(=O)c1ccc(Cl)cc1 [CHLORPROPAMIDE]" measurement_type=AC50 recorded_measurement="> 10 µM"
compound="CC(C(=O)O)c1ccc2oc(-c3ccc(Cl)cc3)nc2c1 (stereo not drawn)" measurement_type=AC50 recorded_measurement="> 30 µM"
compound=CCCN(CCC)S(=O)(=O)c1ccc(C(=O)O)cc1 measurement_type=AC50 recorded_measurement="> 10 µM"
compound="CC(c1cc2ccccc2s1)N(O)C(N)=O (stereo not drawn)" measurement_type=AC50 recorded_measurement="> 10 µM"
compound=Oc1cc(O)c(Cl)cn1 measurement_type=AC50 recorded_measurement="> 30 µM"
compound=OC[C@H]1O[C@@H](Oc2cc(O)cc(/C=C/c3ccc(O)cc3)c2)[C@H](O)[C@@H](O)[C@@H]1O measurement_type=AC50 recorded_measurement="> 30 µM"
compound=CNCCc1ccc(OC(=O)C(C)C)c(OC(=O)C(C)C)c1 measurement_type=AC50 recorded_measurement="> 30 µM"
compound=CCC1(CCC(C)C)C(=O)NC(=O)NC1=O measurement_type=AC50 recorded_measurement="> 10 µM"

###

# SYSTEM NAME: Voltage-gated inwardly rectifying potassium channel KCNH2 (Homo sapiens); also: assay procedure not described here
# Format: functional
MEASUREMENT TYPE: AC50 (µM)

molecule="COc1ccc2cc(CCC(C)=O)ccc2c1 [NABUMETONE]" cmp=> recorded_measurement=30
molecule="CC(C(=O)O)c1ccc2oc(-c3ccc(Cl)cc3)nc2c1 (configuration not stated) [BENOXAPROFEN]" cmp=> recorded_measurement=30
molecule="O=C(CCCN1CCC(O)(c2ccc(Br)cc2)CC1)c1ccc(F)cc1 [BROMPERIDOL]" cmp== recorded_measurement=0.23
molecule="CN1Cc2c(N)cccc2C(c2ccccc2)C1 (configuration not stated) [NOMIFENSINE]" cmp== recorded_measurement=4.8
molecule="COc1cccc(C(=O)CCN[C@@H](C)[C@H](O)c2ccccc2)c1 [OXYFEDRINE]" cmp== recorded_measurement=10
molecule="C[C@]12C=CC(=O)C=C1CC[C@H]1[C@@H]3C[C@@H](O)[C@](O)(C(=O)CO)[C@@]3(C)C[C@H](O)[C@@]12F [TRIAMCINOLONE]" cmp=> recorded_measurement=30
molecule="C[N+](C)(C)CCOP(=O)(O)OP(=O)([O-])OC[C@H]1O[C@@H](n2ccc(N)nc2=O)[C@H](O)[C@@H]1O [CITICOLINE]" cmp=> recorded_measurement=30

###

Listed compounds paired with reported AC50
# SYSTEM NAME: Muscarinic acetylcholine receptor M1 (Homo sapiens, UniProt P11229); also: assay procedure not described here
# Sequence (P11229 whole entry): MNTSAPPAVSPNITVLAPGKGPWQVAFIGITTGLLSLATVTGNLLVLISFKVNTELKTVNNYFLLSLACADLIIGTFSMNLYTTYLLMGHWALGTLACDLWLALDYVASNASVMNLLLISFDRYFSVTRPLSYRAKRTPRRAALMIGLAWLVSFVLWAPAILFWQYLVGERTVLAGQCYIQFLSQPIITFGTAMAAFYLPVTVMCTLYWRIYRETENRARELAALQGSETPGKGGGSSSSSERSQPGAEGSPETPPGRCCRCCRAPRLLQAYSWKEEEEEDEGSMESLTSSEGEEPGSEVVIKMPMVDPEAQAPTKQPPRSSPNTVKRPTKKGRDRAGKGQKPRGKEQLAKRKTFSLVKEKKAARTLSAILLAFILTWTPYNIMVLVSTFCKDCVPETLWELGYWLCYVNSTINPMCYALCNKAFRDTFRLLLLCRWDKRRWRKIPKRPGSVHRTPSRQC
# Type: functional
MEASUREMENT TYPE: AC50

compound=O=C(c1cc(Cc2n[nH]c(=O)c3ccccc23)ccc1F)N1CCN(C(=O)C2CC2)CC1 recorded_measurement="> 10 µM"
compound="CC(C(=O)O)c1ccc2c(c1)CC(=O)c1ccccc1S2 (configuration not stated)" recorded_measurement="> 30 µM"
compound=Cn1cc(C(=O)[C@@H]2CCc3nc[nH]c3C2)c2ccccc21 recorded_measurement="> 30 µM"
compound="CC(CN(C)C)C(C)(O)Cc1ccc(Cl)cc1 (configuration not stated)" recorded_measurement="> 10 µM"
compound="COC(=O)C1=C(C)NC(C)=C(C(=O)OCCN2CCN(C(c3ccccc3)c3ccccc3)CC2)C1c1cccc([N+](=O)[O-])c1 (configuration not stated)" recorded_measurement="> 30 µM"
compound=O=C(NCCO[N+](=O)[O-])c1cccnc1 recorded_measurement="> 30 µM"
compound=CN[C@@H](C)[C@@H](O)c1ccccc1 recorded_measurement="> 10 µM"
compound="Clc1ccc(CCC(Cn2ccnc2)Sc2c(Cl)cccc2Cl)cc1 (configuration not stated)" recorded_measurement="> 30 µM"
compound=CCCN1CCCC[C@H]1C(=O)Nc1c(C)cccc1C recorded_measurement="> 30 µM"
compound=OC[C@H]1O[C@@H](Oc2cc(O)cc(/C=C/c3ccc(O)cc3)c2)[C@H](O)[C@@H](O)[C@@H]1O recorded_measurement="> 30 µM"
compound=CN1CCN=C(c2ccccc2)c2cc(Cl)ccc21 recorded_measurement="> 30 µM"
compound="O=C(O)c1ccc(NC(=O)[C@H](Cc2ccc(O)cc2)NC(=O)c2ccccc2)cc1 [BENTIROMIDE]" recorded_measurement="> 10 µM"
compound=Cc1ccccc1-n1c(CF)nc2ccc(N)cc2c1=O recorded_measurement="> 10 µM"
compound="CC1=C(C(=O)OC(C)C)C(c2cccc([N+](=O)[O-])c2)C(C(=O)OC2CN(C(c3ccccc3)c3ccccc3)C2)=C(N)N1 (configuration not stated)" recorded_measurement="> 30 µM"
compound=COc1cc(C(C)=O)ccc1OCCCN1CCC(c2noc3cc(F)ccc23)CC1 recorded_measurement="6.38 µM"
compound=Cc1nnc(SCC2=C(C(=O)O)N3C(=O)[C@@H](NC(=O)Cn4cnnn4)[C@H]3SC2)s1 recorded_measurement="> 300 µM"
compound="CCCN1CC(NS(=O)(=O)N(CC)CC)CC2Cc3c(O)cccc3CC21 (configuration not stated) [QUINAGOLIDE]" recorded_measurement="> 30 µM"
